target: Fuc(a1-2)Gal(b1-4)Glc6S; test: glycan array binding signal (z-score within array); higher = stronger binding; conditions: glycan notation: IUPAC condensed, linker removed
About 410 targets per protein were measured; listed, in parts, are those with the strongest signals and a random draw of the rest.
Respond with rule met for glycan array binding signal (z-score) values of 0.2 and above, rule not met for values below.

Determine whether measured glycan array binding signal (z-score) meets or exceeds 0.2 for BabA (Helicobacter pylori), O52269_HELPY (protein) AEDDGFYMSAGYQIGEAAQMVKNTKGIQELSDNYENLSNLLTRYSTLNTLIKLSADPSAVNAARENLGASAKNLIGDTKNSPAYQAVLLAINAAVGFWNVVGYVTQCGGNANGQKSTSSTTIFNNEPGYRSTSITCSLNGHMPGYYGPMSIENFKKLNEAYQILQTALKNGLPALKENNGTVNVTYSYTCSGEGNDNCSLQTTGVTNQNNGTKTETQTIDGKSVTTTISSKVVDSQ rule met

Record Apa (Mycobacterium tuberculosis), Rv1860 (protein) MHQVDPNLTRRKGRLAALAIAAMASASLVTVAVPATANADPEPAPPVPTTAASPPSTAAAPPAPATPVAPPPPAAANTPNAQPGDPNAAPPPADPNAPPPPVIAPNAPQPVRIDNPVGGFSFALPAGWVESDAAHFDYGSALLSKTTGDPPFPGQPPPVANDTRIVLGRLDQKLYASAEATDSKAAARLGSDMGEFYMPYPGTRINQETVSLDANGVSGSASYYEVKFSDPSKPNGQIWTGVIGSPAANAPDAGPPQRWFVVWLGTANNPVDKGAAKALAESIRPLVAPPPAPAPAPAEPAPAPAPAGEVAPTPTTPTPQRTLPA ; criterion: glycan array binding signal (z-score) no lower than 0.2. Met? rule not met

For this binder, is measured glycan array binding signal (z-score) 0.2 or higher? RBMC1 (Vibrio cholerae) (protein) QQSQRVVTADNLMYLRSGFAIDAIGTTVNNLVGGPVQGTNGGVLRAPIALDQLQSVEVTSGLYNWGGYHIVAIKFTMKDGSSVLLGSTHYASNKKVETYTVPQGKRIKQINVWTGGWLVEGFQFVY rule not met

Is glycan array binding signal (z-score) at least 0.2? Consider SRS2 (Toxoplasma gondii), O15695 (protein) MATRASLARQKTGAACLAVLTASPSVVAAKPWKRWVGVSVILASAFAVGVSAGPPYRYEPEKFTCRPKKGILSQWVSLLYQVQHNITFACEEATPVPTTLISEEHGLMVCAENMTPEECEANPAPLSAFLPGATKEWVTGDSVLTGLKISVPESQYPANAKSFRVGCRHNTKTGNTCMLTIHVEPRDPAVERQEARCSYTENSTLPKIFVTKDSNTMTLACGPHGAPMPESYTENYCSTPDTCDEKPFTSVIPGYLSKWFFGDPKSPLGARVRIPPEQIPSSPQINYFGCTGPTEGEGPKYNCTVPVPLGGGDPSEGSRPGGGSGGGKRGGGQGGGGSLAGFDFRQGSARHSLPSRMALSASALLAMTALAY rule met

The measured values listed here are drawn from the supplement of paper PMC8728848.
